System: HOP-92
Assay: NCI tumour cell line growth inhibition, 48 h
The source made the active and inactive calls. Cut-off read from the data, not from the text of the source: active = GI50 up to about 1.1 µM and inactive = higher.
The reply should name one outcome from yes for active, no for inactive

# count of solved cases: 3
Prompt: Please state the recorded outcome for this molecule: N#CC12CC3(CCC1CCC1(C2)OCCO1)OCCO3 (stereo unspecified)
Response: no

Prompt: Please state the recorded outcome for this molecule: C=CCC1(CN(C)C)CC/C(=C\c2cc(OC)c(OC)c(OC)c2)C1=O (stereo unspecified)
Response: no

Prompt: Please state the recorded outcome for this molecule: OCC1CCC(n2cnc3c(O)ncnc32)O1 (stereo unspecified)
Response: no

Continuing:
Prompt: Please state the recorded outcome for this molecule: `O=CN/C=C\c1cc(O)ccc1O`
Response: no

Prompt: Please state the recorded outcome for this molecule: CC1[C@@]2(CCC(C)(C)O2)O[C@@H]2C=C3C4CCC5Cc6nc7c(nc6C[C@@]5(C)C4C[C@H](O)[C@@]3(C)[C@]12O)CC1CCC2C3=C[C@H]4O[C@@]5(O[C@@](C)(CO)C[C@@H]5O)C(C)[C@@]4(O)[C@]3(C)[C@@H](O)CC2[C@]1(C)C7 (stereo partly specified)
Response: yes

Prompt: Please state the recorded outcome for this molecule: `CC(=O)OC/C=C\Cn1nc(Br)c(=O)[nH]c1=O`
Response: no

----------
HCT-15 data, read-out GI50

Consider the reported GI50 for these compounds:
Prompt: # return recorded GI50 for input O=C(O)CCC(=O)OC1N=C(c2ccccc2Cl)c2cc([N+](=O)[O-])ccc2NC1=O (stereo not drawn)
Response: 36.7 µM

Prompt: # return recorded GI50 for input `CCCCCCCCCCCCCCCCOC(=O)C(C(=O)OCCCCCCCCCCCCCCCC)[N+](C)(C)CCOC(C)=O`
Response: 22.1 µM

Prompt: # return recorded GI50 for input `Cc1ccc(C(=O)Nc2ccc(CP(=O)(O)O)cc2)cc1NC(=O)c1cccc(NC(=O)Nc2cccc(C(=O)Nc3cc(C(=O)Nc4ccc(CP(=O)(O)O)cc4)ccc3C)c2)c1`
Response: > 100 µM

Prompt: # return recorded GI50 for input O=C1O[B-](c2ccccc2)(c2ccccc2)[NH+]2CCCC12 (stereo not drawn)
Response: 59.3 µM

Prompt: # return recorded GI50 for input CC(C)=CCC12Cc3ccc(O)cc3C(C(C)CN1)C2C (stereo not drawn)
Response: 72.1 µM

Continuing:
Prompt: # return recorded GI50 for input `O=C1CSC(C(/N=N/c2ccccc2)=C2Nc3ccccc3N2)=N1`
Response: 54.6 µM

Prompt: # return recorded GI50 for input `CN(C)c1ccc(/C=c2\sc3nc4ccccc4n3c2=O)cc1`
Response: > 100 µM

----------
Tested on: SNB-75
Assay: NCI tumour cell line growth inhibition, 48 h
The source made the active and inactive calls. No stated cut-off is given here; in the data, active = GI50 up to about 1.1 µM and inactive = higher.
The reply should name one outcome from class 1 (active), class 0 (inactive)

Prompt: Please state the recorded outcome for this compound: `CCCCNC(=S)N/C=C1\C(=O)Oc2ccccc2C1=O`
Response: class 0

Continuing:
Prompt: Please state the recorded outcome for this compound: `Cc1ccc2nc3c(C)c(Cl)c(=O)cc-3sc2c1`
Response: class 0

Prompt: Please state the recorded outcome for this compound: `Oc1cccc(-c2nc3cc(F)ccc3s2)c1`
Response: class 0

Prompt: Please state the recorded outcome for this compound: Cc1c(N)nc([C@H](CC(N)=O)NC[C@H](N)C(N)=O)nc1C(=O)N[C@H](C(=O)N[C@H](C)[C@@H](O)[C@H](C)C(=O)N[C@H](C(=O)NCCc1nc(-c2nc(C(=O)NCCC[S+](C)C)cs2)cs1)[C@@H](C)O)C(OC1OC(CO)C(O)C(O)C1OC1OC(CO)C(O)C(OC(N)=O)C1O)c1c[nH]cn1 (stereo partly specified)
Response: class 1

Prompt: Please state the recorded outcome for this compound: COc1cc(C2c3cc4c(cc3OC(NN=C(C)C)C2C)OCO4)cc(OC)c1O (stereo unspecified)
Response: class 0

Prompt: Please state the recorded outcome for this compound: OC(c1ccco1)C(F)(F)c1nc2ccccc2o1 (stereo unspecified)
Response: class 0

Prompt: Please state the recorded outcome for this compound: `CCOC(=O)C1(C(=O)OCC)CSC1`
Response: class 0

Prompt: Please state the recorded outcome for this compound: CNC(=S)N/N=C1\CC(c2ccccc2)Oc2ccccc21 (stereo unspecified)
Response: class 0

Prompt: Please state the recorded outcome for this compound: `CC(=O)C1=C(O)/C(=C\c2ccco2)OC1=O`
Response: class 0

Prompt: Please state the recorded outcome for this compound: `Nc1ccc(/N=N/c2ccccc2)cc1`
Response: class 0

Prompt: Please state the recorded outcome for this compound: `Cc1ccc(C(=O)Nc2ccc(CP(=O)(O)O)cc2)cc1NC(=O)c1cccc(NC(=O)Nc2cccc(C(=O)Nc3cc(C(=O)Nc4ccc(CP(=O)(O)O)cc4)ccc3C)c2)c1`
Response: class 0
